Data origin: patent US20250059174A1

test system: M-07e cells; experiment: M-07e cellular assay (SCF-mediated cell proliferation); format: cell-based; details: Homo sapiens, 72 hours, CellTiter Glo
result_type: EC50

Briefly, EC50 measured for `Cc1cc(C)c(-c2ccn3ncc(C(=O)Nc4cc(-c5noc([C@H]6C[C@@H](OC(F)(F)F)C6)n5)ccc4C)c3c2)c(C)c1` : > 1000 nM

Briefly, EC50 measured for `Cc1ncc(-c2noc(N3CC(F)(F)C3)n2)cc1NC(=O)c1cnn2ccc(N3CC4(C3)CC(O)(C(F)F)C4)cc12` : < 100 nM

----------
Measured pEC50 of individual entries
system: M-07e cells; assay: M-07e cellular assay (SCF-mediated cell proliferation); assay type: cell-based; conditions: Homo sapiens, 72 hours, CellTiter Glo
pEC50: −log10 of the molar value.

Some entries whose results are on file:
CC(=O)N1CCC(c2nc(-c3cnc(C)c(NC(=O)c4cnn5ccc(N6CC7(COC7)C6)cc45)c3)no2)CC1 = < 6.00
Cc1ccc(-c2noc([C@H]3C[C@H]3C(F)F)n2)cc1NC(=O)c1cnn2ccc(N3CC4(COC4)C3)cc12 = > 7.00

Attention now shifts to the item below.
Hey, M-07e cells data for `Cc1ccc(-c2noc([C@H]3C[C@@H]3F)n2)cc1NC(=O)c1cnn2ccc(N3CC4(CNC4)C3)cc12` : pEC50 came out at 6.00 to 7.00
